target: JAK3 enzyme (Homo sapiens); assay: JAK Caliper Enzyme Assay at 1 mM ATP; type: biochemical
So I've got a bunch of compounds here, and I need their pIC50 values.
Here pIC50 is given on a logarithmic scale as minus log10 of the concentration in mol/L.

Prompt: # query: pIC50 | item C=CC(=O)N1CC[C@H](Nc2cnc3[nH]cc(C(=O)NC4CC(F)(F)C4)c3n2)[C@H](OC)C1 [Example 277] | system: JAK3 enzyme (Homo sapiens)
Completion: 6.81

Prompt: Value wanted: pIC50 (JAK3 enzyme (Homo sapiens)) of entry C=CC(=O)N1CCCC(Nc2cnc3[nH]cc(C(=O)NCC)c3n2)C1 (racemic) [Example 34]
Completion: 6.98

Prompt: Item: C=CC(=O)N1CCC(Nc2cnc3[nH]cc(C(=O)NCC4CC4)c3n2)CC1 [Example 172] Test system: JAK3 enzyme (Homo sapiens) Read-out: pIC50 Value: ?
Completion: 8.30

Prompt: Give the reported pIC50 for C=CC(=O)N1CC[C@H](Nc2cnc3[nH]cc(C(=O)NCC(C)CC(F)(F)F)c3n2)[C@H](OC)C1 (mixture of isomers) [Example 328] (system: JAK3 enzyme (Homo sapiens)).
Completion: 7.43

Prompt: Item: C=CC(=O)N1CCN(c2cnc3[nH]cc(C(=O)NC4CCCC4)c3n2)CC1 (racemic) [Example 292] Test system: JAK3 enzyme (Homo sapiens) Read-out: pIC50 Value: ?
Completion: 7.77

Prompt: Report pIC50 for C=CC(=O)N1CCC(Nc2cnc3[nH]cc(C(=O)NCC(C)(C)C)c3n2)CC1C (racemic) [Example 267] tested on JAK3 enzyme (Homo sapiens).
Completion: 6.10

Prompt: So what pIC50 did C=CC(=O)N1CC[C@H](Nc2cnc3c(n2)c(C(=O)NCC)cn3C)C[C@@H]1C (single isomer, unassigned) [Example 350] get with JAK3 enzyme (Homo sapiens)?
Completion: 5.36

Prompt: pIC50 of C=CC(=O)N1CCN(c2cnc3[nH]cc(C(=O)N[C@@H](C)COCc4ccccc4)c3n2)CC1(C)C [Example 134] on JAK3 enzyme (Homo sapiens)?
Completion: 5.60

Prompt: Test system JAK3 enzyme (Homo sapiens); read-out pIC50; what value for C=CC(=O)N1CC[C@@H](Nc2cnc3[nH]cc(C(=O)N[C@@H]4C[C@H]4C(F)(F)F)c3n2)[C@@H](OC)C1 [Example 316] ?
Completion: 6.89

Prompt: // map C=CC(=O)N1CCN(c2cnc3[nH]cc(C(=O)N[C@@H]4COc5ccccc5C4)c3n2)CC1(C)C [Example 168] to recorded pIC50 (system: JAK3 enzyme (Homo sapiens))
Completion: 6.11

Prompt: Short answer please: pIC50, JAK3 enzyme (Homo sapiens), entry C=CC(=O)N1CC[C@@H](Oc2cnc3[nH]cc(C(=O)NCC)c3n2)C[C@@H]1C (single isomer, unassigned) [Example 79]
Completion: 7.11

Prompt: API: value(readout=pIC50, system=JAK3 enzyme (Homo sapiens)) for record C=CC(=O)N1CCN(c2cnc3[nH]cc(C(=O)NC4CCCC4)c3n2)CC1(C)C [Example 334]
Completion: 7.03

Prompt: Recall the recorded pIC50 for C=CC(=O)N(C)C1CN(c2cnc3[nH]cc(C(=O)NCC)c3n2)C1 [Example 59] with JAK3 enzyme (Homo sapiens) and state it.
Completion: 5.92

Prompt: Under JAK3 enzyme (Homo sapiens): pIC50 value of C=CC(=O)N1CCN(c2cnc3[nH]cc(C(=O)N[C@@H]4COC[C@@H]4C4CC4)c3n2)CC1(C)C [Example 139] ?
Completion: 6.96

Prompt: Quick check: pIC50 on JAK3 enzyme (Homo sapiens), item C=CC(=O)N1C[C@H](COCCC#N)C[C@H](Nc2ncnc3[nH]ccc23)C1 [Example 101] ?
Completion: 7.55

Prompt: Could you share what pIC50 was measured for C=CC(=O)N1CC[C@@H](Nc2cnc3[nH]cc(C(=O)N[C@@H](C)COC)c3n2)[C@@H](OC)C1 (single isomer, unassigned) [Example 355] , tested on JAK3 enzyme (Homo sapiens)?
Completion: 7.52

* * *

biological target: JAK3 enzyme (Homo sapiens, UniProt P52333); experiment: JAK Caliper Enzyme Assay at 4 μM ATP; type: biochemical
QUANTITY KIND: IC50 (nM)
Numbers only; they are read as nM.

Prompt: What does the record list as IC50 for C=CC(=O)N1CCN(c2cnc3[nH]cc(C(=O)NC4CCOC4)c3n2)CC1(C)C (racemic) [Example 164] ?
Completion: 4.34

Prompt: Fill in: IC50 of C=CC(=O)N1C[C@H](Nc2cnc3[nH]cc(C(=O)NCCOC)c3n2)[C@H](C2CC2)C1 [Example 259] is ___
Completion: 180

Prompt: Name the recorded IC50 for C=CC(=O)N1CC[C@H](Nc2cnc3[nH]cc(C(=O)NCC)c3n2)[C@H](C)C1 (single isomer, unassigned) [Example 39] .
Completion: 1.01

Prompt: Value lookup for IC50; key = C=CC(=O)N1CC[C@H](Nc2cnc3[nH]cc(C(=O)N[C@H](C)COC)c3n2)C[C@@H]1C (single isomer, unassigned) [Example 57]
Completion: 4.45

Prompt: Record request: IC50 value, item C=CC(=O)N1CCC(Oc2cnc3[nH]cc(C(=O)NC4CCCC4)c3n2)CC1 (racemic) [Example 204]
Completion: 0.272

Prompt: # get_value(readout='IC50', item= C=CC(=O)N1C[C@@H](C)[C@@H](Nc2cnc3[nH]cc(C(=O)NCCOC)c3n2)C1 (stereo in doubt) [Example 253] )
Completion: 72

Prompt: Need IC50 of C=CC(=O)N1CC[C@H](COc2cnc3[nH]cc(C(=O)N[C@@H](C)COC)c3n2)C1 (single isomer, unassigned) [Example 11] , thanks.
Completion: 1.61

* * *

Target: JAK3 enzyme (Homo sapiens)
Sequence (P52333 1-1124): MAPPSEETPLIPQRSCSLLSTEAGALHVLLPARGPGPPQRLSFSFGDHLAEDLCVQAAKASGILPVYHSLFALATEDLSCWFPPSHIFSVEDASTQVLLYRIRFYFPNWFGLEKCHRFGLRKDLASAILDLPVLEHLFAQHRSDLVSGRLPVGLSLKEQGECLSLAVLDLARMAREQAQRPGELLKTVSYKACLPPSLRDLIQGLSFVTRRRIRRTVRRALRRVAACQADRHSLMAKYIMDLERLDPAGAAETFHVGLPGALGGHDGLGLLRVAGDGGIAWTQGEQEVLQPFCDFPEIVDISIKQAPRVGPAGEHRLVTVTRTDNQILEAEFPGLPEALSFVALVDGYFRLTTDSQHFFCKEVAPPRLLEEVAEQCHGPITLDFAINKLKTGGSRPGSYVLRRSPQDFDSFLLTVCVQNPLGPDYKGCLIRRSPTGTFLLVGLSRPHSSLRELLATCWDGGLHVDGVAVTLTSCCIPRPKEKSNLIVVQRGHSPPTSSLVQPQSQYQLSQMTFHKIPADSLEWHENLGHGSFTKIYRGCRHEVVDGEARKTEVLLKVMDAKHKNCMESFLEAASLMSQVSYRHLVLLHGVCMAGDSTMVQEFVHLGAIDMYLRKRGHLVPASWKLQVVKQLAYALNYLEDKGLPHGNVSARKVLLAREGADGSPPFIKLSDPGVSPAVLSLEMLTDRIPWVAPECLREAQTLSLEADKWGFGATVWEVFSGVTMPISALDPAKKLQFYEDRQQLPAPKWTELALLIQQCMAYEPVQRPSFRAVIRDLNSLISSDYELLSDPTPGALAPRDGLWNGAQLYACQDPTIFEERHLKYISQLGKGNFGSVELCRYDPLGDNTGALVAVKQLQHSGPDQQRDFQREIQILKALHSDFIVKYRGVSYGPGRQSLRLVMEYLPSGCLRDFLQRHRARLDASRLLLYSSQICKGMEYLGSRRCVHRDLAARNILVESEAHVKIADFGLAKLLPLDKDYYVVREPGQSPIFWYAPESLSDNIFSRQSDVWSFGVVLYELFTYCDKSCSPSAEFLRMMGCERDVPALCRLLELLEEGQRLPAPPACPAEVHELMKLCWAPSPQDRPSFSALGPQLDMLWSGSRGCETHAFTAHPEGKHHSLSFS
Assay: JAK Caliper Enzyme Assay at 1 mM ATP
Format: biochemical
Procedure: Test article was solubilized in dimethyl sulfoxide (DMSO) to a stock concentration of 30 mM. An 11-point half log dilution series was created in DMSO with a top concentration of 600 μM. […] Test article and assay controls were added to a 384-well plate. […] Enzyme concentrations and incubation times were optimized for each new enzyme preps and were modified slightly over time to ensure 20%-30% phosphorylation. […]
QUANTITY KIND: IC50 (nM)
Enter your answer as a number in nM; do not include the unit.

Prompt: Tell me the measured IC50 of C=CC(=O)N1CCC(Nc2cnc3[nH]cc(C(=O)NCc4nc(C)cc(C(F)(F)F)n4)c3n2)CC1 , please.
Completion: 55

Prompt: Need IC50, item C=CC(=O)N1C[C@@H](CC)[C@@H](Nc2cnc3[nH]cc(C(=O)NCC)c3n2)C1
Completion: 6460

Prompt: Which IC50 value belongs to C=CC(=O)N1CC[C@@H](Nc2cnc3c(n2)c(C(=O)NCC)cn3C)C[C@H]1C (single isomer, unassigned) ?
Completion: 838

Prompt: # lookup: IC50 of C=CC(=O)N1C[C@H](CO)C[C@H](Nc2ncnc3[nH]ccc23)C1 (single isomer, unassigned)
Completion: 8990

Prompt: Request the reported IC50 associated with C=CC(=O)N1CCCC(Nc2cnc3[nH]cc(C(=O)NCC)c3n2)C1 (single isomer, unassigned) [Example 35]
Completion: 621

Prompt: What does the record list as IC50 for C=CC(=O)N1CCC(Oc2cnc3[nH]cc([C@@H](C)O)c3n2)CC1 (single isomer, unassigned) ?
Completion: 3930

Prompt: May I ask what IC50 has been recorded for C=CC(=O)N1C[C@@H](C)[C@@H](Nc2cnc3[nH]cc(C(=O)NCC)c3n2)C1 (stereo in doubt) ?
Completion: 5330

Prompt: Which IC50 value belongs to C=CC(=O)N1CC[C@@H](Nc2cnc3[nH]cc(C(=O)NCCC(F)(F)F)c3n2)[C@@H](OC)C1 ?
Completion: 70

Prompt: Fill in the blank: the reported IC50 of C=CC(=O)N1CC[C@@H](CNc2cnc3[nH]cc(C(=O)N[C@@H](C)COC)c3n2)C1 (single isomer, unassigned) is ____.
Completion: 37

Prompt: Requested read-out: IC50. Entry: C=CC(=O)N1CCC(Oc2cnc3[nH]cc(C(=O)NC4CCCC4(F)F)c3n2)CC1 (stereo not drawn)
Completion: 25

Prompt: Which IC50 reading was recorded for the compound C=CC(=O)N1CC[C@@H](COc2cnc3[nH]cc(C(=O)N[C@@H](C)COC)c3n2)C1 (single isomer, unassigned) ?
Completion: 766

Prompt: What measured IC50 goes with C=CC(=O)N1CC[C@H](Nc2cnc3[nH]cc(C(=O)NCC(F)(F)F)c3n2)C1 ?
Completion: 85

Prompt: Suppose we examine the compound C=CC(=O)N1CCCC1COc1cnc2[nH]cc(C(=O)N[C@@H](C)COC)c2n1 (mixture of isomers) ; what IC50 value has been reported?
Completion: 106

Prompt: What does the record list as IC50 for C=CC(=O)N1CCC(Oc2cnc3[nH]cc(-c4ncnn4C)c3n2)CC1 ?
Completion: 1470

Prompt: What does the data say about its IC50? Entry: C=CC(=O)N1CCC(Oc2cnc3[nH]cc(C(=O)NCCCC)c3c2)CC1
Completion: 1190

Ref: patent US10703756B2
